TARGET OR TEST SYSTEM: NRAS Q61R (Homo sapiens, UniProt P01111+P62937, Q61R)
Sequence (P01111 whole entry Q61R, one chain of several): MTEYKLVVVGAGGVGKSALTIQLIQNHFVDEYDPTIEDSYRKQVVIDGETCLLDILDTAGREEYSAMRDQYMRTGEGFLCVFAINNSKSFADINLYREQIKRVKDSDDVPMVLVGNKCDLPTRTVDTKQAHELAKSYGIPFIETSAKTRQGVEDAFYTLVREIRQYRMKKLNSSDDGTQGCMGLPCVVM
ASSAY OVERVIEW: Ras-Raf disruption / FRET / MOA assay (BRAF RBD)
Type: biochemical
TEST PARAMETERS: NRAS Q61R; read-out: NRAS Q61R FRET data IC50
VALUE TYPE: IC50

Take a look at these entries with their results.
[
  {
    "COMPOUND": "CCn1c(-c2cccnc2[C@H](C)OC)c2c3cc(ccc31)-c1csc(n1)C[C@H](NC(=O)[C@H](C(C)C)N(C)C(=O)N(C)[C@H]1CCN(C(=O)[C@@H]3CN3)C1)C(=O)N1CCC[C@H](N1)C(=O)OCC(C)(C)C2 (atropisomer, axis not shown)",
    "VALUE TYPE": "IC50",
    "RESULT": "100 to 1000 nM"
  },
  {
    "COMPOUND": "CCn1c(-c2cccnc2[C@H](C)OC)c2c3cc(ccc31)-c1csc(n1)C[C@H](NC(=O)[C@H](C(C)C)N(C)C(=O)N1CCCN(C(=O)[C@H]3CN3)CC1)C(=O)N1CCC[C@H](N1)C(=O)OCC(C)(C)C2 (atropisomer, axis not shown)",
    "VALUE TYPE": "IC50",
    "RESULT": "10 to 100 nM"
  },
  {
    "COMPOUND": "CCn1c(-c2cccnc2[C@H](C)OC)c2c3cc(ccc31)-c1cc(O)cc(c1)C[C@H](NC(=O)[C@H](C(C)C)N(C)C(=O)[C@H]1CCN(C(=O)C3OC3c3ccccc3)C1)C(=O)N1CCC[C@H](N1)C(=O)OCC(C)(C)C2 (stereo partly shown)",
    "VALUE TYPE": "IC50",
    "RESULT": "100 to 1000 nM"
  }
]

Prompt: Which value of IC50 has been reported for CCn1c(-c2cccnc2[C@H](C)OC)c2c3cc(ccc31)-c1csc(n1)C[C@H](NC(=O)[C@H](C(C)C)N(C)C(=O)N1CC(CN(C)C(=O)[C@H]3CN3)C1)C(=O)N1CCC[C@H](N1)C(=O)OCC(C)(C)C2 (atropisomer, axis not shown) in the records?
Completion: 10 to 100 nM

###

TARGET OR TEST SYSTEM: KRAS G13D (Homo sapiens, UniProt P01116+P62937, G13D)
Sequence (P01116 1-169 isoform P01116-2 G13D limits assumed): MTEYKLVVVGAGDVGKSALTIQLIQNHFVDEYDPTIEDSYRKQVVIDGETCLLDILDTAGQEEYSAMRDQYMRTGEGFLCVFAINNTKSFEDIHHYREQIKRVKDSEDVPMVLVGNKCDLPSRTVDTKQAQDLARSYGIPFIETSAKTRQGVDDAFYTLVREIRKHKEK
Sequence (P62937 whole entry): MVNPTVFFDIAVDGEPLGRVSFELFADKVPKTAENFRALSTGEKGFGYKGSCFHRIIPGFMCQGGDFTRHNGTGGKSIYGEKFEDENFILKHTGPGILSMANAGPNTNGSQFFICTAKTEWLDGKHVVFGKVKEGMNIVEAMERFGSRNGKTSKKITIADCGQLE
ASSAY OVERVIEW: Disruption of BRAF RBD interaction with Ras (FRET / MOA assay, with Cyclophilin A)
Format: biochemical
TEST PARAMETERS: KRAS G13D; read-out: KRAS G13D FRET data IC50
The reader will find reported IC50 values listed item by item below.

Here is how some molecules turned out for IC50.
[
  {
    "MOLECULE": "C=CC(=O)N1CCC2(C1)CN(C(=O)N(C)[C@H](C(=O)N[C@H]1Cc3nc(cs3)-c3ccc4c(c3)c(c(-c3cccnc3[C@H](C)OC)n4CC(F)(F)F)CC(C)(C)COC(=O)C3CCCN(N3)C1=O)C(C)C)C2 (some centres unmarked)",
    "IC50": "0.1 to 1 µM"
  },
  {
    "MOLECULE": "CCn1c(-c2cccnc2[C@H](C)OC)c2c3cc(ccc31)N1CCO[C@@](C)(CC(NC(=O)[C@H](C(C)C)N(C)C(=O)C3(F)CCN(C(=O)C#CC(C)(C)N(C)C)CC3)C(=O)N3CCC[C@H](N3)C(=O)OCC(C)(C)C2)C1 (some centres unmarked)",
    "IC50": "1 to 10 µM"
  },
  {
    "MOLECULE": "CCn1c(-c2cccnc2[C@H](C)OC)c2c3cc(ccc31)-c1cc(O)cc(c1)C[C@H](NC(=O)[C@H](C(C)C)N(C)C(=O)[C@H]1C[C@H](O)C1)C(=O)N1CCC[C@H](N1)C(=O)OCC(C)(C)C2",
    "IC50": "0.1 to 1 µM"
  }
]

Prompt: Give its IC50 value. Item: C=CS(=O)(=O)N1CC[C@H](C(=O)N(C)[C@H](C(=O)N[C@H]2Cc3cccc(c3)-c3ccc4c(c3)c(c(-c3cncnc3)n4CC)CC(C)(C)COC(=O)[C@@H]3CCCN(N3)C2=O)C(C)C)C1
Completion: > 10 µM

Prompt: So what's the measured IC50 for this one? CCn1c(-c2cccnc2[C@H](C)OC)c2c3cc(ccc31)-c1csc(n1)C[C@H](NC(=O)[C@H](C(C)C)N(C)C(=O)N1CC[C@]13CCCNC3)C(=O)N1CCC[C@H](N1)C(=O)OCC(C)(C)C2
Completion: 0.1 to 1 µM

Prompt: Fill blank: measured IC50 of the molecule CCn1c(-c2cccnc2[C@H](C)OC)c2c3cc(ccc31)-c1cc(O)cc(c1)C[C@H](NC(=O)[C@H](C(C)C)N(C)C(=O)[C@H]1CC1(F)F)C(=O)N1CCC[C@H](N1)C(=O)OCC(C)(C)C2 is ____.
Completion: 0.1 to 1 µM
